Where do the numbers come from? From paper PMC6767265.

- Test system: human hepatocellular carcinoma cell line (HepG2)
- PROCEDURE_TEXT: Cell viability assay (neutral red), HepG2
- Format: cell-based
- EXPERIMENTAL_CONTEXT: Homo sapiens, HepG2; 24 h, neutral red
Entries whose IC50 is below 50 µM take Fulfilled; entries at or above 50 µM take Not fulfilled.

MOLECULE	SUBJECT_OF_TEST	LABEL
COc1ccc2c(c1)[nH]c1c(CC=C(C)C)c(O)c(C=O)cc12 [7-Methoxyheptaphylline (7), 7-methoxyheptaphylline]	human hepatocellular carcinoma cell line (HepG2)	Not fulfilled
C=CC(C)(C)c1c2c(c(OC)c3ccc(=O)oc13)C=CC(C)(C)O2 [Dentatin (3), dentatin]	human hepatocellular carcinoma cell line (HepG2)	Fulfilled
C=CC(C)(C)c1c2c(c(O)c3ccc(=O)oc13)C=CC(C)(C)O2 [Nordentatin (6), nordentatin]	human hepatocellular carcinoma cell line (HepG2)	Fulfilled
CC(C)=CCc1c(O)c(C=O)cc2c1[nH]c1ccccc12 [Heptaphylline (1), heptaphylline]	human hepatocellular carcinoma cell line (HepG2)	Fulfilled
COc1ccc2c(c1)[nH]c1cc(O)c(C=O)cc12 [7-Methoxymukonal (5), 7-methoxymukonal]	human hepatocellular carcinoma cell line (HepG2)	Not fulfilled
C=CC(C)(C)c1cc2c(O)c3c(c(C(C)(C)C=C)c2oc1=O)OC(C)(C)C=C3 [Clausarin (2), clausarin]	human hepatocellular carcinoma cell line (HepG2)	Fulfilled
COc1c2c(cc3oc(=O)ccc13)OC(C)(C)C=C2 [Xanthoxyletin (4), xanthoxyletin]	human hepatocellular carcinoma cell line (HepG2)	Not fulfilled
